Assay: in vitro
Details: rat, liver microsomes
reported metric: half-life (h)

CN1CCN(CCCN(C(=O)Nc2ccc(F)c(C(F)(F)F)c2)C2CCC3(c4ccc(C#N)cc4)CC23)CC1 (centres undefined): 1.82

P: O=c1cc(-c2ccc(Cl)cc2Cl)ccn1-c1ccc2c(cnn2CCN2CCCC2)c1
Q: O=c1cc(-c2ccc(C(F)(F)F)cc2)ccn1-c1ccc2c(cnn2CCN2CCCC2)c1
R: COc1cc(-n2cnc3cc(-c4ccc(Cl)cc4)sc3c2=O)ccc1OCCN1CCCC1
// ascending sort on recorded half-life Put the labels in the order asked and list them. P, Q, R
(P: 1.1 h, Q: 1.7 h, R: 3.27 h)

// data source = ChEMBL document CHEMBL1287674
